Taken from paper PMC10397247.

- Study System: T1, 4H2586-bA
- T1 chain: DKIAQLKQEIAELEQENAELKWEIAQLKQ
- Test Method Notes: two-hybrid library CCNG1;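 further: natural log of median RNA to DNA barcode read ratio; higher means stronger binding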
Quantity Kind: interaction score
Lab note: record the figure alone, no unit after it.

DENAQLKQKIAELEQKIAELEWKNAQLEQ [4H1831-bA] :: -0.446

Query: Look up and state reported interaction score for DENQQLEQKIQELKQKNQELKWKIQELKQ [4H1406-bN]
Reply: 0.875

Query: Name the recorded interaction score of the item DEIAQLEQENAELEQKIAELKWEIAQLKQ [4H170-bA] in your answer.
Reply: -0.588

Query: Look up and report measured interaction score for this entry: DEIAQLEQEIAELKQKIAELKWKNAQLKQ [4H112-bA]
Reply: -0.329

Query: Determine from records and report interaction score for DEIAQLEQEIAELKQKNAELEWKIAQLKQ [4H118-bA]
Reply: 0.381

Query: Dear colleague, please send me the reported interaction score for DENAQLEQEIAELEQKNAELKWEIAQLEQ [4H1081-bA] when you can.
Reply: -1

Query: Please give measured interaction score of the following entry: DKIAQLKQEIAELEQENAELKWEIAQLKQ [4H2586-bA]
Reply: 1.48

Query: Tell me its interaction score given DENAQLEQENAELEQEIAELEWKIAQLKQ [4H1158-bA] as the entry.
Reply: -0.706
